Starred links: 1 amine or outer side, 2 acyl side, 3 side chain; linkers in the order of their positions; H or OH if unused. Positions of bridges follow the written chain, without caps; N, C: chain ends. Non-standard residues stand in square brackets, D forms with d. Residues, ends and D or L forms follow the SMILES beside them. ξ: configuration not given here. *: point of attachment. X2 = CC(C)C[C@@H](CC(=O)[C@H](CCN)N[*:1])C(=O)[*:2]; Phenylacetyl(4-CF3) = O=C(Cc1ccc(C(F)(F)F)cc1)*; Benzoyl(3-CF3) = O=C(c1cccc(C(F)(F)F)c1)*; Thr(3ξ) = CC(O)[C@H](N)C(=O)O; Octanoyl = CCCCCCCC(=O)*; Dab = NCC[C@H](N)C(=O)O; Abu = CC[C@H](N)C(=O)O; Dap = NC[C@H](N)C(=O)O
Lab note: Minimum inhibitory concentration, Ec FADDI-EC001 readings collected with Enterobacter cloacae for the following molecules.

Some molecules with recorded Minimum inhibitory concentration, Ec FADDI-EC001:
molecule	target_or_test_system	reported_measurement
CC[C@@H]1NC(=O)[C@@H](Cc2ccccc2)NC(=O)[C@H](CCN)NC(=O)[C@@H](NC(=O)[C@H](CN)NC(=O)[C@@H](NC(=O)[C@H](CCN)NC(=O)c2cccc(C(F)(F)F)c2)[C@@H](C)O)CCNC(=O)[C@H]([C@@H](C)O)NC(=O)[C@H](CCN)NC(=O)[C@H](CCN)NC1=O [Compound 122] ({Benzoyl(3-CF3)}-[Dab]T[Dap][Dab][Dab][dF][Abu][Dab][Dab]T; lactam 4-C)	Enterobacter cloacae	0.5 µg/mL
CCCCCCCC(=O)N[C@@H](CCN)C(=O)N[C@H](C(=O)N[C@H](CO)C(=O)N[C@H]1CCNC(=O)[C@H](C(C)O)NC(=O)[C@H](CCN)NC(=O)[C@H](CCN)NC(=O)[C@H](C(C)O)NC(=O)[C@@H](CC(C)C)CC(=O)[C@H](CCN)NC1=O)C(C)O (stereo partly drawn) [Compound 1] (Octanoyl-[Dab][Thr(3ξ)][dS][Dab][X2][Thr(3ξ)][Dab][Dab][Thr(3ξ)]; lactam 4-C)	Enterobacter cloacae	<0.125 µg/mL

# evaluate next
Task: Tell me Minimum inhibitory concentration, Ec FADDI-EC001 of CC[C@@H]1NC(=O)[C@@H](CC(C)C)NC(=O)[C@H](CCN)NC(=O)[C@@H](NC(=O)[C@H](CN)NC(=O)[C@@H](NC(=O)[C@H](CCN)NC(=O)Cc2ccc(C(F)(F)F)cc2)[C@@H](C)O)CCNC(=O)[C@H]([C@@H](C)O)NC(=O)[C@H](CCN)NC(=O)[C@H](CCN)NC1=O [Compound 127] ({Phenylacetyl(4-CF3)}-[Dab]T[Dap][Dab][Dab][dL][Abu][Dab][Dab]T; lactam 4-C) when tested on Enterobacter cloacae.
Result: <0.125 µg/mL

###

List of Δ log (Treated-Control at 4 h) values.
test system: K. pneumoniae FADDI-KP032; assay: In vivo efficacy in mouse blood infection model (neutropenic Swiss mice); details: compound, free base 4 mg/kg intravenously 2 h after inoculation, blood at 4 h
Positions of bridges follow the written chain, without caps; N, C: chain ends. Non-standard residues stand in square brackets, D forms with d. Residues, ends and D or L forms follow the SMILES beside them. *: point of attachment. X8 = O=C(c1ccc(C(F)(F)F)cc1Cl)*; Octanoyl = CCCCCCCC(=O)*; Dab = NCC[C@H](N)C(=O)O; Abu = CC[C@H](N)C(=O)O; Dap = NC[C@H](N)C(=O)O
Number in log10 CFU/mL, nothing else.

compound	measurement_kind	reported_measurement
CC[C@@H]1NC(=O)[C@@H](CC(C)C)NC(=O)[C@H](CCN)NC(=O)[C@@H](NC(=O)[C@H](CN)NC(=O)[C@@H](NC(=O)[C@H](CCN)NC(=O)c2ccc(C(F)(F)F)cc2Cl)[C@@H](C)O)CCNC(=O)[C@H]([C@@H](C)O)NC(=O)[C@H](CCN)NC(=O)[C@H](CCN)NC1=O [Compound 109] (X8-[Dab]T[Dap][Dab][Dab][dL][Abu][Dab][Dab]T; lactam 4-C)	Δ log (Treated-Control at 4 h)	−3.47

Moving on to another compound below.
Task: Quickly give me recorded Δ log (Treated-Control at 4 h) for CCCCCCCC(=O)N[C@@H](CCN)C(=O)N[C@H](C(=O)N[C@@H](CCN)C(=O)N[C@H]1CCNC(=O)[C@H]([C@@H](C)O)NC(=O)[C@H](CCN)NC(=O)[C@H](CCN)NC(=O)[C@H]([C@@H](C)O)NC(=O)[C@@H](CC(C)C)NC(=O)[C@H](CCN)NC1=O)[C@@H](C)O [Compound 20] (Octanoyl-[Dab]T[Dab][Dab][Dab][dL]T[Dab][Dab]T; lactam 4-C)
Result: −3.50
